Where these numbers come from: patent US12662479B2

- target.or.system: HiBit-BRG1 fusion protein (Homo sapiens)
- Construct: expressed in transfected cells
- experiment.description: HiBiT-BRG1 cell-based degradation assay (Nano-Glo HiBiT Lytic Detection, 24 h)
- condition.summary: HeLa, HeLa cells expressing HiBit-BRG1 and LgBit, top dose 30 μM, read-out: BRG1 HiBit Degradation Maximum measured
Record form. Attribute: Dmax. Fill in for each entry.

These recorded examples may help you get a feel for the data.
Summary for this compound, CS(=O)(=O)n1ccc(C(=O)NCC(=O)Nc2nc(-c3cccc(-c4cccc(CNC(=O)CCCCCCCCCCNc5ccc6c(c5)C(=O)N(C5CCC(=O)NC5=O)C6=O)c4)c3)cs2)c1 (centres unmarked) : Dmax is 50 to 75%

Summary for this compound, CN(CCNC(=O)C1(c2cc(-c3cccc(-c4csc(NC(=O)CNC(=O)c5ccn(S(C)(=O)=O)c5)n4)c3)ccn2)CC1)CCNc1cccc2c1C(=O)N(C1CCC(=O)NC1=O)C2=O (centres unmarked) : Dmax is < 50%

Summary for this compound, Cc1ncsc1-c1ccc(CNC(=O)[C@@H]2C[C@@H](O)CN2C(=O)[C@@H](NC(=O)COCCOCC(=O)NCc2cccc(-c3cccc(-c4csc(NC(=O)CNC(=O)c5ccn(S(C)(=O)=O)c5)n4)c3)c2)C(C)(C)C)cc1 : Dmax is > 75%

Summary for this compound, CS(=O)(=O)n1ccc(C(=O)N[C@@H](COCCCC(=O)NCCCCS(=O)(=O)CCCNc2cccc3c2C(=O)N(C2CCC(=O)NC2=O)C3=O)C(=O)Nc2nc(-c3ccccc3)cs2)c1 (some centres unmarked) : Dmax is < 50%

More entries:
Summary for this compound, Cc1ncsc1-c1ccc(CNC(=O)[C@@H]2C[C@@H](O)CN2C(=O)[C@@H](NC(=O)CCCCCC(=O)NCCOc2cc(-c3cccc(-c4csc(NC(=O)CNC(=O)c5ccn(S(C)(=O)=O)c5)n4)c3)ccn2)C(C)(C)C)cc1 : Dmax is > 75%

---

- target.or.system: HiBit-BRG1 fusion protein (Homo sapiens, UniProt P51532)
- Construct: expressed in transfected cells
- Sequence (P51532 whole entry, the tested form may be a part): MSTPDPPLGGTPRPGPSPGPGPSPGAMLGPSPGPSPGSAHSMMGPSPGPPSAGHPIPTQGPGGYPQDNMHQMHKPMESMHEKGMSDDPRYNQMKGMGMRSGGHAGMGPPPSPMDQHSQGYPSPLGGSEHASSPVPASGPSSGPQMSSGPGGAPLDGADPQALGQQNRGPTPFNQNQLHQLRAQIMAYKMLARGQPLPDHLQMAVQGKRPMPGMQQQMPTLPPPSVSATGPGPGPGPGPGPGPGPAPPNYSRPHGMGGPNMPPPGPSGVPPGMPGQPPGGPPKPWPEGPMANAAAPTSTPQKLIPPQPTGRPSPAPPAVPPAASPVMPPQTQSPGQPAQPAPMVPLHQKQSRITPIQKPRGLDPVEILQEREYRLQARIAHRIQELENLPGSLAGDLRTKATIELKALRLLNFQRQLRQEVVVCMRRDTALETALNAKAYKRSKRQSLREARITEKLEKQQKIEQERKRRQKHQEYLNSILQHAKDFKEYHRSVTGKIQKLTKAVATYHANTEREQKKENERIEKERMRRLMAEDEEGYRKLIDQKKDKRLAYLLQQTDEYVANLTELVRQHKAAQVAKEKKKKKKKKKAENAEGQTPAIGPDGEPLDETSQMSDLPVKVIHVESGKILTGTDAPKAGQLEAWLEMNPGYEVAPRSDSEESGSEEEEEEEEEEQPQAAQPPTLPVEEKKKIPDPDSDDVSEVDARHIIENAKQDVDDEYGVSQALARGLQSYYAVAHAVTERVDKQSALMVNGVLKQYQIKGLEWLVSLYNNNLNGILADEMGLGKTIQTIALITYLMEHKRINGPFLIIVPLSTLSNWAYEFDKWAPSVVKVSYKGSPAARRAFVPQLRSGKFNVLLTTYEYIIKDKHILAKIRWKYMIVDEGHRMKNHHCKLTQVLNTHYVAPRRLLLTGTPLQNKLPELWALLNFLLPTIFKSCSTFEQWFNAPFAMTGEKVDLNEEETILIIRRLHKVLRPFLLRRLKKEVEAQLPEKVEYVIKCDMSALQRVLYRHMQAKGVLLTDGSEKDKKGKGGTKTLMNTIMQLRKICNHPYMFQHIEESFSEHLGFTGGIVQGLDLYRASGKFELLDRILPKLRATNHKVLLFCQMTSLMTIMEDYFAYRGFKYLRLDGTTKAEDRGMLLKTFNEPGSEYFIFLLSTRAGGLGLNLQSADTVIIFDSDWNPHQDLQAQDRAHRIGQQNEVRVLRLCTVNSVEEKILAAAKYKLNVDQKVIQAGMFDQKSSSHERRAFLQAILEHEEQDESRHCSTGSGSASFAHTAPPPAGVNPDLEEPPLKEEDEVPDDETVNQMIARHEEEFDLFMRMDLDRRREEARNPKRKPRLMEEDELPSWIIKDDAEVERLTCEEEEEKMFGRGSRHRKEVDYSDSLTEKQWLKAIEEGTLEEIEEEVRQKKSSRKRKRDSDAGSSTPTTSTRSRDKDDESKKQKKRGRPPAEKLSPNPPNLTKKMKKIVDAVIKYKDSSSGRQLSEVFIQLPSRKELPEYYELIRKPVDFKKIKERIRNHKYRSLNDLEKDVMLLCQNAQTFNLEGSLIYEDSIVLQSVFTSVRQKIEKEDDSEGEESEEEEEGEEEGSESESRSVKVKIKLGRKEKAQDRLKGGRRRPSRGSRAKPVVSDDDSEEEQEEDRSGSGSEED
- experiment.description: HiBiT-BRG1 cell-based degradation assay (Nano-Glo HiBiT Lytic Detection, 24 h)
- condition.summary: HeLa, HeLa cells expressing HiBit-BRG1 and LgBit, top dose 30 μM, read-out: BRG1 HiBit Degradation Maximum measured
observable: Dmax

These recorded examples may help you get a feel for the data.
Readout Dmax for Cc1ncsc1-c1ccc(CNC(=O)[C@@H]2C[C@@H](O)CN2C(=O)[C@@H](NC(=O)CCCCCNC(=O)CCCOC[C@H](NC(=O)c2ccn(S(C)(=O)=O)c2)C(=O)Nc2nc(-c3ccccc3)cs2)C(C)(C)C)cc1 [Compound 226] , test system HiBit-BRG1 fusion protein (Homo sapiens, UniProt P51532), was < 50%

Readout Dmax for CN(CCNC(=O)C1(c2cc(-c3cccc(-c4csc(NC(=O)CNC(=O)c5ccn(S(C)(=O)=O)c5)n4)c3)ccn2)CC1)CCOCCOc1cccc2c1C(=O)N(C1CCC(=O)NC1=O)C2=O (stereo not drawn) [Compound 112] , test system HiBit-BRG1 fusion protein (Homo sapiens, UniProt P51532), was < 50%

Consider now this further molecule.
Readout Dmax for Cc1ncsc1-c1ccc(CNC(=O)[C@@H]2C[C@@H](O)CN2C(=O)[C@@H](NC(=O)CCCCC(=O)NCc2cccc(-c3cccc(-c4csc(NC(=O)CNC(=O)c5ccn(S(C)(=O)=O)c5)n4)c3)c2)C(C)(C)C)cc1 [Compound 48] , test system HiBit-BRG1 fusion protein (Homo sapiens, UniProt P51532), was 50 to 75%
